Exercise: state measured efflux ratio at 2 h, 1 µM for each of the compounds provided.
target: BCRP (Homo sapiens (Human), UniProt Q9UNQ0); test: BCRP MDCKII permeability assay: efflux ratio; type: in vitro ADME; settings: dog
Sequence (Q9UNQ0 whole entry): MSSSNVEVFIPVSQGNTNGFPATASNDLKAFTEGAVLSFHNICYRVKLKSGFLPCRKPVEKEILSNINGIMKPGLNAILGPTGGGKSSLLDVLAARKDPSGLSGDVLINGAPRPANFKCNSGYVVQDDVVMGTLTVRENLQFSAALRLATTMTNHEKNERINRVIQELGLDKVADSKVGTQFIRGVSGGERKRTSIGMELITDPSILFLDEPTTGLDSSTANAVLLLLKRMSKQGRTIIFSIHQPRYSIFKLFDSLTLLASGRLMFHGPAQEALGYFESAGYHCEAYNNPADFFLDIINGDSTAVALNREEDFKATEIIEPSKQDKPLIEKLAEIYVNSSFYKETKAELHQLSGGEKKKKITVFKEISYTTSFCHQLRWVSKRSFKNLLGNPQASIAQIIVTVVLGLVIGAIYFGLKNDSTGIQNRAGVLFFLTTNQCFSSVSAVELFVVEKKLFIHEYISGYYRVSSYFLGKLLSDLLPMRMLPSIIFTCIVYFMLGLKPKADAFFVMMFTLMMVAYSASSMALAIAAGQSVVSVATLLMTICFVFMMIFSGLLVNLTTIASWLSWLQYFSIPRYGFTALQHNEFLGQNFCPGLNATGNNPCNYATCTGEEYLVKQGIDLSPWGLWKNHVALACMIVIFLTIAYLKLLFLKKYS
Counter-ions that a name gives are not always drawn.

(Q) Would you kindly share the measured efflux ratio at 2 h, 1 µM for Cn1cnc2ccc(Nc3c(F)c(F)cc(NS(=O)(=O)N4CCCC4)c3F)c(Cl)c2c1=O [Example 43, trifluoroacetate] ?
(A) 1.9

(Q) Now this one: Cn1cnc2ccc(Nc3c(F)ccc(NS(=O)(=O)N4CCCC4)c3Cl)c(C#N)c2c1=O [Example 50, trifluoroacetate]
(A) 6.3

(Q) Now this one: Cc1c(Nc2c(F)ccc(NS(=O)(=O)N3CCC4(CC4)C3)c2Cl)ccc2ncn(C)c(=O)c12 [Example 82, trifluoroacetate]
(A) 1

(Q) Now this one: Cc1c(Nc2cc(Cl)cc(NS(=O)(=O)N3CCCC3)c2F)ccc2ncn(C)c(=O)c12
(A) 1.3

---

target: full-length FLAG-tagged B-Raf(V600E) (Homo sapiens (Human), UniProt P15056, V600E); assay: BRAF V600E enzyme assay (TR-FRET competitive displacement); assay type: binding; conditions: averaged IC50; TR-FRET tracer displacement, 60 min
Sequence (P15056 whole entry V600E): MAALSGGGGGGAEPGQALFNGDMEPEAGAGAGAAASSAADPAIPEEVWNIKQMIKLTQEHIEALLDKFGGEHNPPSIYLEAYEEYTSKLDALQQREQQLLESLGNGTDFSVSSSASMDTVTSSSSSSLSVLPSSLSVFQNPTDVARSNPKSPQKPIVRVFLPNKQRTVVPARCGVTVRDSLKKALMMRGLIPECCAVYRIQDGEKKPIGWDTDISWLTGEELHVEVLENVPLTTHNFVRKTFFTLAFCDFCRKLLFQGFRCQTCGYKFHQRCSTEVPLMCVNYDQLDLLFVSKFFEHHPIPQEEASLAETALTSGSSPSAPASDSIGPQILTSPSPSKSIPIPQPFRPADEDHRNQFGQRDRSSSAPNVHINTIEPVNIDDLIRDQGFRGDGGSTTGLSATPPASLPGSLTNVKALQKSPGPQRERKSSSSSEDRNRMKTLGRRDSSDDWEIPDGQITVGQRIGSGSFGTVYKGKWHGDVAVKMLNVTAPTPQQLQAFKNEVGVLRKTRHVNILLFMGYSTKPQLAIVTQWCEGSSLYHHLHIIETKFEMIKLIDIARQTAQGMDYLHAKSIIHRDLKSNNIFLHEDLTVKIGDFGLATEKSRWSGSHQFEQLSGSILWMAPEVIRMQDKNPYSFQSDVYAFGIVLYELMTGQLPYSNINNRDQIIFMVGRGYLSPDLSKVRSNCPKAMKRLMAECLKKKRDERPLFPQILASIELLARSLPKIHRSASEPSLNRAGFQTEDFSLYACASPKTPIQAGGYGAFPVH
Counter-ions that a name gives are not always drawn.
OBSERVED_PROPERTY: pIC50
// returns pIC50 (minus log10 of molar concentration), number only

(Q) Hello, I am looking for reported pIC50 with full-length FLAG-tagged B-Raf(V600E) (Homo sapiens (Human), UniProt P15056, V600E) for Cn1cnc2ccc(Nc3c(F)ccc(NS(=O)(=O)N4CC[C@@H](OC(F)F)C4)c3Cl)c(F)c2c1=O [Example 26] . Could you help?
(A) 8.22

(Q) Now this one: Cc1c(Nc2c(F)ccc(NS(=O)(=O)N3CC[C@H](F)C3)c2Cl)ccc2ncn(C)c(=O)c12 [Example 86, trifluoroacetate]
(A) 7.38

(Q) Now this one: Cn1cnc2ccc(Nc3c(F)c(F)cc(NS(=O)(=O)N4CC[C@@H](F)C4)c3F)c(Cl)c2c1=O [Example 36, trifluoroacetate]
(A) 9.00

(Q) Now this one: Cn1cnc2ccc(Nc3c(F)c(F)cc(NS(=O)(=O)N4CC5CC4C5)c3Cl)c(F)c2c1=O [Example 41, trifluoroacetate]
(A) 8.52

(Q) Now this one: CO[C@@H]1CCN(S(=O)(=O)Nc2ccc(F)c(Oc3ccc4ncn(C)c(=O)c4c3F)c2Cl)C1 [Example 48, trifluoroacetate]
(A) 8.52

(Q) Now this one: Cc1c(Nc2c(F)ccc(NS(=O)(=O)N3CCC(O)CC3)c2Cl)ccc2ncn(C)c(=O)c12 [Example 77, trifluoroacetate]
(A) 6.75

---

target: full-length FLAG-tagged B-Raf(V600E) (Homo sapiens (Human), UniProt P15056, V600E); assay: BRAF V600E enzyme assay (TR-FRET competitive displacement); format: binding; conditions: averaged IC50; TR-FRET tracer displacement, 60 min
Counter-ions that a name gives are not always drawn.
Exercise: state measured pIC50 for each of the compounds provided.
// returns pIC50 (minus log10 of molar concentration), number only

(Q) Would you kindly share the measured pIC50 for Cn1cnc2ccc(Nc3c(F)c(F)cc(NS(=O)(=O)N4CC[C@@H](F)C4)c3Cl)c(F)c2c1=O [Example 46, trifluoroacetate] ?
(A) 9.00

(Q) Now this one: COCC1(F)CN(S(=O)(=O)Nc2ccc(F)c(Nc3ccc4ncn(C)c(=O)c4c3C)c2Cl)C1 [Example 145, trifluoroacetate]
(A) 8.22

(Q) Now this one: CCc1c(Nc2c(F)ccc(NS(=O)(=O)N3CCCC3)c2Cl)ccc2ncn(C)c(=O)c12 [Example 52, trifluoroacetate]
(A) 6.85

---

assay: MDR1 LLC-PK1 and BCRP MDCKII permeability assay: permeability coefficient (Papp); format: in vitro ADME
Structures can show the parent of a compound that is named as a salt.
OBSERVED_PROPERTY: Papp at 2 h, 1 µM (nm/s)
// return numeric value only (unit: nm/s, not printed)

(Q) Would you kindly share the measured Papp at 2 h, 1 µM for CO[C@@H]1CN(S(=O)(=O)Nc2ccc(F)c(Nc3ccc4ncn(C)c(=O)c4c3Cl)c2Cl)C[C@@H]1F (relative stereo) ?
(A) 400

(Q) Now this one: Cc1c(Oc2c(F)ccc(NS(=O)(=O)N3CC[C@@H](F)C3)c2Cl)ccc2ncn(C)c(=O)c12
(A) 250

(Q) Now this one: Cn1cnc2ccc(Nc3c(F)ccc(NS(=O)(=O)N4CC5CC4C5)c3Cl)c(F)c2c1=O
(A) 320

(Q) Now this one: COC1CN(S(=O)(=O)Nc2ccc(F)c(Oc3ccc4ncn(C)c(=O)c4c3C)c2Cl)C1
(A) 300

(Q) Now this one: COC1CN(S(=O)(=O)Nc2ccc(F)c(Oc3ccc4ncn(C)c(=O)c4c3F)c2Cl)C1
(A) 320

(Q) Now this one: Cn1cnc2ccc(Oc3c(F)ccc(NS(=O)(=O)N4CCCC4)c3Cl)c(Cl)c2c1=O
(A) 230

(Q) Now this one: Cn1cnc2ccc(Nc3c(F)c(F)cc(NS(=O)(=O)N4CC5CC4C5)c3Cl)c(F)c2c1=O [Example 41, trifluoroacetate]
(A) 290

(Q) Now this one: CCN(C)S(=O)(=O)Nc1cc(F)c(F)c(Nc2ccc3ncn(C)c(=O)c3c2F)c1Cl
(A) 400

(Q) Now this one: Cn1cnc2ccc(Nc3cc(Cl)cc(NS(=O)(=O)N4CC[C@@H](F)C4)c3F)c(F)c2c1=O [Example 58, trifluoroacetate]
(A) 270

(Q) Now this one: COC1CN(S(=O)(=O)Nc2ccc(F)c(Oc3ccc4ncn(C)c(=O)c4c3Cl)c2Cl)C1
(A) 320

(Q) Now this one: Cn1cnc2ccc(Oc3c(F)ccc(NS(=O)(=O)N4CC[C@@H](OC(F)F)C4)c3Cl)c(Cl)c2c1=O
(A) 180

(Q) Now this one: COCC1(C)CN(S(=O)(=O)Nc2ccc(F)c(Nc3ccc4ncn(C)c(=O)c4c3C)c2Cl)C1 [Example 140, trifluoroacetate]
(A) 480

(Q) Now this one: Cn1cnc2ccc(Nc3c(F)c(F)cc(NS(=O)(=O)N4CC[C@@H](F)C4)c3Cl)c(Cl)c2c1=O [Example 33, trifluoroacetate]
(A) 250

(Q) Now this one: Cn1cnc2ccc(Oc3c(F)ccc(NS(=O)(=O)N4CC5CC5C4)c3Cl)c(F)c2c1=O (stereo not drawn)
(A) 280

(Q) Now this one: Cn1cnc2ccc(Nc3c(F)ccc(NS(=O)(=O)N4CCCC4)c3Cl)c(C#N)c2c1=O [Example 50, trifluoroacetate]
(A) 260

---

Molecular target: UniProt:P08183
Sequence (P08183 whole entry, species assumed): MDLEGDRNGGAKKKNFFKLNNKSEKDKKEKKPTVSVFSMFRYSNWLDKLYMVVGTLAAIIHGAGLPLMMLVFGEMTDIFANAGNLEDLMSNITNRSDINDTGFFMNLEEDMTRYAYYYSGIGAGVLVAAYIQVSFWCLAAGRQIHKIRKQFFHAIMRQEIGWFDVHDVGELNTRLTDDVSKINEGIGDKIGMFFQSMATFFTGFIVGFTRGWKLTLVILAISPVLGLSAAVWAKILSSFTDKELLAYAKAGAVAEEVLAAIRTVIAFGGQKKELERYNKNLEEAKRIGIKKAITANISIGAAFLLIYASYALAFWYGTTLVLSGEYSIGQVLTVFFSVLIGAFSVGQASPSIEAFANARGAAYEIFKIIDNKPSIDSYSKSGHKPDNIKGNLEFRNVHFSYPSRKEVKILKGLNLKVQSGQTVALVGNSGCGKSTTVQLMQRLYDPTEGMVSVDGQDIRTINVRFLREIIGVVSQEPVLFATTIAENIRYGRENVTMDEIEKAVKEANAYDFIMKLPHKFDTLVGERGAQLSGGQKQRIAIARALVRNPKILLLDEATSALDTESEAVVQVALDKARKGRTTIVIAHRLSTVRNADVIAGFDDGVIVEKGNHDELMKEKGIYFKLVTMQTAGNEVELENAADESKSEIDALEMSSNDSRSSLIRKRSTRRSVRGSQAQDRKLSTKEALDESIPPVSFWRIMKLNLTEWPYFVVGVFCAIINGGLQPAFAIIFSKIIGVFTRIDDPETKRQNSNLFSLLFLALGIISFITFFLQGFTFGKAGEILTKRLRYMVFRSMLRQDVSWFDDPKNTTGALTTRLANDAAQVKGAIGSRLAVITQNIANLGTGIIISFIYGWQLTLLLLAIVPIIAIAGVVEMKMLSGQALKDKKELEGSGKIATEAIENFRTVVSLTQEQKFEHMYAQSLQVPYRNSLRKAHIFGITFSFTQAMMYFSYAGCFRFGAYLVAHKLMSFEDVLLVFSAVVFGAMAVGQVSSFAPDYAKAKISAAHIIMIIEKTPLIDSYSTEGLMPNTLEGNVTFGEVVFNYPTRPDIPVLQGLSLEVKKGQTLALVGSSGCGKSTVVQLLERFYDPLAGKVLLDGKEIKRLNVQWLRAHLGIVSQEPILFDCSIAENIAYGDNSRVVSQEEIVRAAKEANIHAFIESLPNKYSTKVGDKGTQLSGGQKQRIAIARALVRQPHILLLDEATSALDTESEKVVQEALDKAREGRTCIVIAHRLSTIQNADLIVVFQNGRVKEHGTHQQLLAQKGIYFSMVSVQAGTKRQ
Experiment: MDR1 LLC-PK1 permeability assay: efflux ratio
Assay type: in vitro ADME
Settings: pig
From the text: Final organic concentration in the assay was 1%.
Structures can show the parent of a compound that is named as a salt.
Cut-off 3 on efflux ratio at 2 h, 1 µM, inclusive. At or above means 1.0; below means 0.0.

(Q) Textbook exercise: given the entry Cc1c(Nc2c(F)ccc(NS(=O)(=O)N3CC4(CCC4)C3)c2Cl)ccc2ncn(C)c(=O)c12 [Example 157, trifluoroacetate] , state whether its efflux ratio at 2 h, 1 µM is greater than or equal to 3.
(A) 0.0

(Q) Now this one: Cc1c(Oc2c(F)ccc(NS(=O)(=O)N3CC4CC4C3)c2Cl)ccc2ncn(C)c(=O)c12 (centres unmarked)
(A) 0.0

(Q) Now this one: CN(C)S(=O)(=O)Nc1ccc(F)c(Nc2ccc3ncn(C)c(=O)c3c2Cl)c1Cl
(A) 0.0

(Q) Now this one: Cn1cnc2ccc(Nc3c(F)ccc(NS(=O)(=O)N4CC5CC5C4)c3Cl)c(F)c2c1=O (centres unmarked) [Example 30, trifluoroacetate]
(A) 0.0

(Q) Now this one: CO[C@H]1CN(S(=O)(=O)Nc2ccc(F)c(Nc3ccc4ncn(C)c(=O)c4c3Br)c2Cl)C[C@H]1F (relative stereo) [Example 16, trifluoroacetate]
(A) 1.0

(Q) Now this one: COC1CN(S(=O)(=O)Nc2ccc(F)c(Oc3ccc4ncn(C)c(=O)c4c3Cl)c2Cl)C1
(A) 1.0

(Q) Now this one: Cn1cnc2ccc(Nc3c(F)ccc(NS(=O)(=O)N4C[C@@H](F)[C@@H](F)C4)c3Cl)c(F)c2c1=O
(A) 1.0

(Q) Now this one: Cc1c(Nc2c(F)ccc(NS(=O)(=O)N3CC4CC4C3)c2Cl)ccc2ncn(C)c(=O)c12 (centres unmarked)
(A) 0.0

(Q) Now this one: Cn1cnc2ccc(Nc3c(F)ccc(NS(=O)(=O)N4C[C@@H](F)[C@@H](F)C4)c3Cl)c(Cl)c2c1=O
(A) 0.0

(Q) Now this one: Cn1cnc2ccc(Oc3c(F)ccc(NS(=O)(=O)N4CC5CC5C4)c3Cl)c(Cl)c2c1=O (centres unmarked)
(A) 0.0

(Q) Now this one: Cc1c(Nc2c(F)ccc(NS(=O)(=O)N3CC(C#N)C3)c2Cl)ccc2ncn(C)c(=O)c12 [Example 146, trifluoroacetate]
(A) 1.0

(Q) Now this one: Cc1c(Nc2c(F)ccc(NS(=O)(=O)N3CCC(F)(F)C3)c2Cl)ccc2ncn(C)c(=O)c12
(A) 0.0

(Q) Now this one: Cc1c(Nc2c(F)c(F)cc(NS(=O)(=O)N(C)C)c2Cl)ccc2ncn(C)c(=O)c12
(A) 0.0
